Biological target: Bifunctional epoxide hydrolase 2 (Homo sapiens, UniProt P34913)
Sequence (P34913 whole entry): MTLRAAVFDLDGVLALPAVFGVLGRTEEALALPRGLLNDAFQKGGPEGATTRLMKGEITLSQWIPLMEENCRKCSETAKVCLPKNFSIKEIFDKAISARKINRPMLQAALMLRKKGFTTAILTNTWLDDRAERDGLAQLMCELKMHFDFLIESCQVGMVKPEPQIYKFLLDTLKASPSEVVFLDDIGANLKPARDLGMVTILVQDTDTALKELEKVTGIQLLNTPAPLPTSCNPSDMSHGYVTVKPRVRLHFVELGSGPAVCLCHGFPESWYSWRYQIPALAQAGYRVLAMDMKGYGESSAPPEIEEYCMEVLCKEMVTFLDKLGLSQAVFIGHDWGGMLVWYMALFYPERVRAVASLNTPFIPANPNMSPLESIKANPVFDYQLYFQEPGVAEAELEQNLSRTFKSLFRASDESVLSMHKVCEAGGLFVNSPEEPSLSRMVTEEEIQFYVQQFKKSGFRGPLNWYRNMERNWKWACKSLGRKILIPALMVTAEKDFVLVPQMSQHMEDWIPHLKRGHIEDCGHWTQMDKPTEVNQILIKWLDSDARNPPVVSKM
Assay: Inhibition of soluble epoxide hydrolase (unknown origin) using NEPC as substrate after 1 hr by fluorescence assay
readoutKind: IC50 (nM)
Only the number, expressed in nM, is required.

{"columns": ["moleculeSmiles", "readoutKind", "units", "value"],
 "data": [
  ["CC1=CC[C@@H]2C(=C(O)c3ccccc3[C@@H]2O)C1=O", "IC50", "nM", 1100]
]}

Next, consider the following compound.
[ask] Endpoint output: IC50 of Cc1ccc2c(O[C@@H]3O[C@H](CO)[C@@H](O)[C@H](O)[C@H]3O)c3ccccc3c(O[C@@H]3O[C@H](CO)[C@@H](O)[C@H](O)[C@H]3O)c2c1 . Value?
[reply] 300
